Origin of measurements: the METLIN SMRT retention time set (Domingo-Almenara et al. 2019)

- measurementNotes: gradient 5% acetonitrile 3 min, to 50% in 2 min, to 85% in 15 min, held 3 min, 100 µL/min
- measurementSetup: column: Zorbax Extend-C18 2.1 x 50 mm; eluents: water / acetonitrile, 0.1% formic acid

compound: COCC1CN(Cc2ccc(OC(F)(F)F)cc2)CC12CCNCC2 (stereo not drawn)
RP-LC retention time / s: 579

compound: Cn1c(C(=O)N(Cc2ccccc2)Cc2ccccc2)cc2c(=O)n3ccccc3nc21
RP-LC retention time / s: 1040

compound: Cc1ccccc1Nc1c(-c2ccc(Cl)cc2Cl)nc2cnccn12
RP-LC retention time / s: 1030

compound: CC(C)Cn1c(=O)c2ccccc2n(Cc2nc(-c3cccc(C(F)(F)F)c3)no2)c1=O
RP-LC retention time / s: 1030

compound: Cc1nn(CC(=O)NC2CCCC2)c(=O)c2cc(-c3ccccc3)nn12
RP-LC retention time / s: 852

compound: COc1cc(OC)cc(N2C(=O)c3cc(C)nn3CC2(C)C(=O)NCc2ccc(F)cc2)c1 (stereo not drawn)
RP-LC retention time / s: 829

compound: CCOC(=O)N1CCN(S(=O)(=O)c2ccc(C(=O)Nc3nnc(C4CC4)o3)cc2)CC1
RP-LC retention time / s: 661

compound: Cc1cnc(C(=O)NC2C[C@H]3CC[C@@H](C2)N3C(=O)c2cc(C)n(C)n2)cn1 (stereo partly drawn)
RP-LC retention time / s: 614

---

- measurementNotes: gradient 5% acetonitrile 3 min, to 50% in 2 min, to 85% in 15 min, held 3 min, 100 µL/min
- measurementSetup: column: Zorbax Extend-C18 2.1 x 50 mm; eluents: water / acetonitrile, 0.1% formic acid
Records here are stratified by RP-LC retention time; strata: bottom bin (below 800 s), middle bin (800 s to below 900 s), top bin (900 s or more)

compound: Cn1cccc1CN(C(=O)C1(c2ccccc2)CCOCC1)C1CC1
classLabel: middle bin
//
compound: Cc1nn(-c2ccc(C(=O)N3CCN(C(=O)c4ccco4)CC3)cc2)c2c1C(=O)CC(C)(C)C2
classLabel: bottom bin
//
compound: Cc1c(C(=O)NCc2c(F)cccc2F)c(C(F)(F)F)nn1C(C)C
classLabel: middle bin
//
compound: O=c1ccc(-c2ccccc2)nn1Cc1nc(-c2cccc(Cl)c2)no1
classLabel: top bin
//
compound: CCc1nc(OCC(=O)NCc2cc(OC)ccc2OC)c2c(C)c(C)oc2n1
classLabel: top bin
//
compound: CCOC(=O)N1CCN(Cc2nc(-c3ccc(N4CCCC4)nc3)no2)CC1
classLabel: bottom bin
//
compound: Cc1nnc2ccc(-c3noc(Cc4ccccc4Cl)n3)cn12
classLabel: middle bin
//
compound: CCOC(=O)c1nc(Nc2cccc(C)c2C)c2ccccc2n1
classLabel: middle bin
//
compound: COc1ccccc1OCC(=O)N1CCN(c2cc(C(C)C)n3cnnc3n2)CC1
classLabel: bottom bin
//
compound: O=C(CC1CCCCC1)N1CCN(c2ccc(=O)n(-c3ccccc3)n2)CC1
classLabel: middle bin
//
compound: CC(C)Cn1c(=O)c2cc(C(=O)NC(C)c3ccco3)nn2c2ccccc21 (stereo unspecified)
classLabel: top bin

---

- measurementNotes: gradient 5% acetonitrile 3 min, to 50% in 2 min, to 85% in 15 min, held 3 min, 100 µL/min
- measurementSetup: column: Zorbax Extend-C18 2.1 x 50 mm; eluents: water / acetonitrile, 0.1% formic acid
observationType: RP-LC retention time (s)

compound: Cn1c(=O)c(=O)n(C)c2cc(N3CCCCC3)c(NC(=O)CN3CCCC3)cc21
observedResult: 599
--
compound: CCCS(=O)(=O)c1nc2ccc(NS(=O)(=O)c3cc(C)ccc3C)cc2s1
observedResult: 958
--
compound: CC1CO/C(=C2\C(=O)OCC2C)C1 (stereo not drawn)
observedResult: 812

---

Known RP-LC retention time of a selection of molecules
- measurementNotes: gradient 5% acetonitrile 3 min, to 50% in 2 min, to 85% in 15 min, held 3 min, 100 µL/min
- measurementSetup: column: Zorbax Extend-C18 2.1 x 50 mm; eluents: water / acetonitrile, 0.1% formic acid
observationType: RP-LC retention time (s)

molecule: CC1CN(c2ccc(Cl)cc2)c2nc3c(c(=O)n(CC(=O)O)c(=O)n3C)n2C1 (stereo unspecified)
observationType: RP-LC retention time
observedResult: 790

molecule: COc1cc(-c2nc(-c3ccc4c(c3)nnn4C)no2)cc(OC)c1OC
observationType: RP-LC retention time
observedResult: 937

molecule: CC(C)NC(=O)c1nnn(-c2ccccc2)c1-c1cccnc1
observationType: RP-LC retention time
observedResult: 713

molecule: CCn1cnc2ccc(-c3noc(-c4ccc(OC)cc4C)n3)cc21
observationType: RP-LC retention time
observedResult: 741

molecule: O=C(Cn1nc(-c2ccco2)ccc1=O)N1CCN(c2ncccn2)CC1
observationType: RP-LC retention time
observedResult: 615

molecule: CC1CCCCN1CCCNC(=O)Cn1ccc2cc(S(=O)(=O)N3CCCCCC3)ccc21 (stereo unspecified)
observationType: RP-LC retention time
observedResult: 682

molecule: COc1ccc(OC)c(NS(=O)(=O)c2ccc3c(c2)-c2oncc2CO3)c1
observationType: RP-LC retention time
observedResult: 889

molecule: Cn1cc(-c2cc3n(n2)CCC(=O)N3CCCC(=O)Nc2ccc(F)cc2F)c2ccccc21
observationType: RP-LC retention time
observedResult: 860

molecule: Cc1ccc(NC(=O)NCC(c2cccnc2)c2cn(C)c3ccccc23)cc1C (stereo unspecified)
observationType: RP-LC retention time
observedResult: 753

molecule: O=C(NCC1CCCO1)c1ccc(CN2CCN(Cc3ccccc3)C(=O)C2=O)cc1 (stereo unspecified)
observationType: RP-LC retention time
observedResult: 669

molecule: Cc1ccsc1CCNC(=O)C1CCN(C(=O)c2cc(-c3cccnc3)n[nH]2)CC1
observationType: RP-LC retention time
observedResult: 625

molecule: CCC(=O)N1CCN(c2nc3c(s2)CC(C(=O)NCc2cc(F)ccc2F)CC3)CC1 (stereo unspecified)
observationType: RP-LC retention time
observedResult: 601

molecule: O=C(N[C@H]1C[C@@H]2C[C@H]1N(C(=O)c1ccccc1OC(F)(F)F)C2)c1cccnc1
observationType: RP-LC retention time
observedResult: 641

molecule: Cc1ccc(-c2nnc(-c3nn(C)c4c3CN(S(=O)(=O)c3ccc(F)c(Cl)c3)CC4)o2)cc1
observationType: RP-LC retention time
observedResult: 970

molecule: O=C(c1cn[nH]c1)N1CCCC1Cc1noc(C2CCCC2)n1 (stereo unspecified)
observationType: RP-LC retention time
observedResult: 692

molecule: COc1ccc(S(=O)(=O)Nc2ccc3nc(-c4ccc(F)cc4)cc(OC)c3c2)cc1
observationType: RP-LC retention time
observedResult: 774

---

- measurementNotes: gradient 5% acetonitrile 3 min, to 50% in 2 min, to 85% in 15 min, held 3 min, 100 µL/min
- measurementSetup: column: Zorbax Extend-C18 2.1 x 50 mm; eluents: water / acetonitrile, 0.1% formic acid
Known RP-LC retention time of a selection of compounds

compound: Cc1cccc(NC(=O)c2cn(CC(=O)NC3CCCC3)c3nc(C)ccc3c2=O)c1
RP-LC retention time (s): 996

compound: CC(C)c1ccc(NC(=O)Cn2nc3c4sc(N(C)C)nc4ncn3c2=O)cc1
RP-LC retention time (s): 782

compound: Fc1cccc(-c2noc(-c3ccc(N4CCN(CCOc5ccc(Cl)cc5)CC4)nc3)n2)c1
RP-LC retention time (s): 920

compound: CC(C)Cn1c(=O)c(C(=O)NC2CCN(Cc3ccccc3)CC2)nc2cccnc21
RP-LC retention time (s): 670

compound: Cn1c(C2CCN(C(=O)c3cccc(Cl)c3)C2)nc2ccncc21 (configuration not stated)
RP-LC retention time (s): 554

compound: COc1cc(-c2nc3ncccn3c2Nc2ccc(C)c(C)c2)ccc1O
RP-LC retention time (s): 683

compound: O=C(Cn1nc2n(c1=O)CCCCC2)Nc1cccc(F)c1
RP-LC retention time (s): 701

compound: O=C(Nc1ccc(Cl)cc1F)N1CCC(N2CC(F)(F)C[C@H]2COCC2CC2)CC1
RP-LC retention time (s): 741

compound: CCc1ccc(Nc2c(C(=O)N3CCCCC3C)cnc3nc(C)ccc23)cc1 (configuration not stated)
RP-LC retention time (s): 674

compound: Cc1ccccc1Cn1cc(-c2ccncc2)cc1C(=O)N1CCN(C2CCCCC2)CC1
RP-LC retention time (s): 586

compound: CCOc1ccc(N2CC(c3nc(-c4cccnc4)no3)CC2=O)cc1 (configuration not stated)
RP-LC retention time (s): 759

compound: CC1CCCCN1CCNC(=O)C1CCCN(c2cnc3nccnc3c2)C1 (configuration not stated)
RP-LC retention time (s): 570

compound: Cn1nc(-c2nc(C3CC3)no2)c2c1CCN(S(=O)(=O)c1ccccc1Cl)C2
RP-LC retention time (s): 952

compound: CCCC(=O)Nc1ccc(CCc2nc3ccc(C(=O)NC4CC4)cc3[nH]2)cc1
RP-LC retention time (s): 599

compound: CC1(C(=O)N2CC(F)(F)C[C@H]2c2nc(-c3ncccn3)no2)CC1
RP-LC retention time (s): 674

compound: Cn1cc(S(=O)(=O)N2CCCCC2)cc1C(=O)N1CCCCC1
RP-LC retention time (s): 833

compound: CCCC(=O)N1C[C@@H]2CCCN3CCC[C@@H]([C@H]23)[C@H]1CCCC(=O)NCC1CC1
RP-LC retention time (s): 587

compound: Cc1cc(C)cc(Nc2c(-c3ccc(N4CCOCC4)cc3)nc3cnccn23)c1
RP-LC retention time (s): 895

compound: CC(C)N1CCn2cc(S(=O)(=O)Nc3ccc(Cl)cc3)cc2C1=O
RP-LC retention time (s): 805

compound: COc1ccccc1OCC(=O)Nc1ccc2c(c1)C(=O)Nc1cc(Cl)ccc1O2
RP-LC retention time (s): 873

compound: CCN(CC)c1ccc(-c2noc(CN3CCc4ccccc4C3)n2)cn1
RP-LC retention time (s): 718

compound: O=C(NC1CC1)C1CCCN(C(=O)c2ccoc2)C1 (configuration not stated)
RP-LC retention time (s): 584

compound: CN(Cc1ccccc1)C(=O)Cn1cccc1-c1nnc(-c2ccccc2)o1
RP-LC retention time (s): 940

compound: CC(=O)c1ccc(NC(=O)c2cc(C)nc3ccccc23)cc1
RP-LC retention time (s): 644

compound: COCCN1CCn2cc(S(=O)(=O)Nc3ccccc3OC)cc2C1=O
RP-LC retention time (s): 679

compound: Cc1cc(F)ccc1NC(=O)c1cc(C2CC2)n2nccc2n1
RP-LC retention time (s): 1030

compound: CC1SC(C)C(=O)N(CC(=O)NCc2ccco2)C1=O (configuration not stated)
RP-LC retention time (s): 685

compound: CC1CCN(CCCNC(=O)C(=O)Nc2ccc3nc4n(c(=O)c3c2)CCCCC4)CC1
RP-LC retention time (s): 615

compound: Cc1cc(Cl)ccc1NC(=O)N1C[C@@H]2C[C@H](NC(=O)c3ccccc3)[C@H]1C2
RP-LC retention time (s): 907

compound: CCn1c(CCNC(=O)c2ccc(C)c(F)c2)nc2cccnc21
RP-LC retention time (s): 676

compound: CCOc1ccc(-c2noc(Cn3nc(-c4ccc(C)c(C)c4)ccc3=O)n2)cc1
RP-LC retention time (s): 1230

compound: Cc1nnc(-c2c(S(=O)(=O)NC3CCCCC3)c(C)n(C)c2C)o1
RP-LC retention time (s): 814
